- Measurement Target: hSortilin (Homo sapiens)
- Assay Explanation: Neurotensin SPA assay with [125I]-Neurotensin
- Format: binding
- Assay Conditions: [125I]-Neurotensin; read-out: Observed IC50
Test Readout: pIC50
Numbers only, as −log10 of the molar value.

Ask: I'd like to know its pIC50. The compound in question is CC(C)(C)CC[C@H](NC(=O)c1ccc(Oc2ccccc2)nc1)C(=O)O (racemic)
Reply: 6.92

###

Notes on IC50 obtained with SORT (Homo sapiens).
Sequence (Q99523 78-831): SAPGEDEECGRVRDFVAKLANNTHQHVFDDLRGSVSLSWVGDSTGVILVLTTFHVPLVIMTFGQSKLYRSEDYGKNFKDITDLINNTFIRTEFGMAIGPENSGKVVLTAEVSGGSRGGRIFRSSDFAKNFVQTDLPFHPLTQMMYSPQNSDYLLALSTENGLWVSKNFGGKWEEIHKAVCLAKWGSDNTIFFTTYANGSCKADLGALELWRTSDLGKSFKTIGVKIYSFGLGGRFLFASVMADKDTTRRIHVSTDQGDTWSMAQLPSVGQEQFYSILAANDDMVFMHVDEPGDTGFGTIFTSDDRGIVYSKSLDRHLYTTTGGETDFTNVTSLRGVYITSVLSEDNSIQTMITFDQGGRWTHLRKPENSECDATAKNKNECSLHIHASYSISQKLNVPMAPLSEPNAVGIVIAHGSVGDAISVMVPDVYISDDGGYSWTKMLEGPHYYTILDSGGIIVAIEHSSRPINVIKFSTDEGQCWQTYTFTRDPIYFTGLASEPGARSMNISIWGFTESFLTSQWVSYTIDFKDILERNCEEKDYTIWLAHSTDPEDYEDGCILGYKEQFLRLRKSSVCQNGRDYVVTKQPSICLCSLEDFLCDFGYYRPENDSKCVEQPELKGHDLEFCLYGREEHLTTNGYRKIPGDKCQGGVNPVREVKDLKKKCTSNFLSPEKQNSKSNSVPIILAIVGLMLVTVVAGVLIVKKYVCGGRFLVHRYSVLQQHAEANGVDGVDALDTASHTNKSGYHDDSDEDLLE

Kindly give each listed record's IC50.
1. CC(C)(C)C[C@H](NC(=O)c1ccc(Oc2ccccc2)nc1)C(=O)O
2. O=C(N[C@@H](CC1CC1)C(=O)O)c1cc(Cl)cc(Cl)c1
3. CC(OC(C)(C)C)[C@H](NC(=O)c1cc(Cl)cc(Cl)c1)C(=O)O (stereo partly shown)

Reply:
["65 nM", "10700 nM", "> 67000 nM"]

Ask: I'd like to know its IC50. The compound in question is CC(C)(C)CC[C@H](NC(=O)c1cc(Cl)c[nH]1)C(=O)O (single isomer, unassigned)
Reply: 90 nM
